Test system: Streptococcus sp. 'group A'
Test: growth inhibition of control SK(-) GAS strain, dose response, counter-screen for streptokinase expression inhibitor project, luminescence, kanamycin, BacTiterGlo, confirmation (AID 1900)
Type: functional, organism-based
Calls of active or inactive are those of the source.
REPORTED_PROPERTY: EC50

query: # get_value(readout='EC50', item= "O=C(NC(=S)NNC(=O)c1ccco1)c1ccc(Br)cc1" )
result: 1.03 µM (active)

query: Give its EC50 value. Item: "Cc1cc2occ(CC(=O)NC3=NCCS3)c2cc1C(C)C"
result: 71.7 µM (active)

query: Item under review: "CC(C)(C)c1ccc(C(=O)NCc2nnc(SCC(=O)NC3CCCC3)o2)cc1" . Reported EC50?
result: > 150 µM (not active)

query: Which EC50 value is on record for "Cc1cccc(NS(=O)(=O)c2ccc(C3CCCCC3)cc2)c1" ?
result: 6.43 µM (active)

query: Which EC50 is listed for "Cc1noc(C)c1CSc1nc2sc(C)c(C)c2c(=O)n1C1CCCC1" ?
result: 5.22 µM (active)

query: Field request: EC50 | item: Oc1nc2cc3c(cc2cc1CN(CCc1ccccc1)Cc1nnnn1CC1CCCO1)OCO3 (configuration not stated)
result: > 150 µM (not active)

query: Param item = CC1=NN(C(N)=S)C(=O)C1N=Nc1c(Br)cc(Br)cc1Br (configuration not stated) ; retrieve measured EC50.
result: 2.76 µM (active)

###

Molecular target: Cytochrome P450 2C19 (Homo sapiens, UniProt P33261)
Sequence (P33261 whole entry): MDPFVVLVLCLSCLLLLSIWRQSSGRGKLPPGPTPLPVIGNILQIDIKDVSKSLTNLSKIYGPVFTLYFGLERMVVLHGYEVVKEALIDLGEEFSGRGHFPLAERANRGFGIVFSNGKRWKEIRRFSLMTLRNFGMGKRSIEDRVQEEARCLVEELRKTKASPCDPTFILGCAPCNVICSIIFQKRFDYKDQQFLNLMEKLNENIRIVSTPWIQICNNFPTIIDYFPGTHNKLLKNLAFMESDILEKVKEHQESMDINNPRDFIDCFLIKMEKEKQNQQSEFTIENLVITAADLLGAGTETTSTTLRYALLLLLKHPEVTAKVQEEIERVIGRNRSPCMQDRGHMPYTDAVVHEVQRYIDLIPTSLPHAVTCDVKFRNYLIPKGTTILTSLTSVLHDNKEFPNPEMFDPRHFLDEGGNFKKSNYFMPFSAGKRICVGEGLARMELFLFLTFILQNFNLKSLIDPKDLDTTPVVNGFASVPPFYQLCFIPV
Test: Cytochrome panel assay with activity outcomes. Panel member name: p450-cyp2c19 Compounds with AC50 equal or less than 10 uM are considered active
Assay type: functional
Details: read-out: AC50
Could you please report measured AC50 for the items listed next?

query: Query for Cytochrome P450 2C19 (Homo sapiens, UniProt P33261): what AC50 does the record show for "CCCCCCCCCCC/C=C\C(C)(C)/C=C\CCCC(=O)O" ?
result: 25.1 µM (inconclusive)

query: Query for Cytochrome P450 2C19 (Homo sapiens, UniProt P33261): what AC50 does the record show for "CN(C)C(=O)c1ccc(-c2nc(Nc3ccncc3)c3ccccc3n2)cc1" ?
result: 39.8 µM (inconclusive)

query: Entry "CCCCCN1CC(=O)C(c2nc(-c3ccc(Cl)cc3)cs2)=C1N" , system Cytochrome P450 2C19 (Homo sapiens, UniProt P33261): what AC50 was measured?
result: 1.12 µM (inconclusive)

query: Param readout = AC50; param system = Cytochrome P450 2C19 (Homo sapiens, UniProt P33261); param query = "O=C1NCCN1Cc1cccc(Cl)c1" ; response: value
result: 2.24 µM (inconclusive)

query: Form: Entry = "C=CCSc1nnc(-c2cc3c(-c4ccccc4)nn(C)c3s2)n1C" | System = Cytochrome P450 2C19 (Homo sapiens, UniProt P33261) | AC50 = ____
result: 17.8 µM (inconclusive)

query: Query for Cytochrome P450 2C19 (Homo sapiens, UniProt P33261): what AC50 does the record show for "Cc1noc(C)c1-c1cc(Nc2ccc(F)cc2)ncn1" ?
result: 39.8 µM (inconclusive)

query: For Cytochrome P450 2C19 (Homo sapiens, UniProt P33261), provide AC50 of "CN1CCN(c2ncc3nc(-c4ccc(F)cc4)c(=O)n(Cc4cccs4)c3n2)CC1" please.
result: 31.6 µM (inconclusive)

query: Write down the reported AC50 of "O=C(CCNC(=O)c1ccccc1)OCN1C(=O)c2ccccc2C1=O" , test system: Cytochrome P450 2C19 (Homo sapiens, UniProt P33261).
result: 39.8 µM (inconclusive)

###

Target: Cytochrome P450 1A2 (Homo sapiens, UniProt P05177);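 also: PubChem cytochrome P450 panel assay, CYP1A2 panel member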
Sequence (P05177 whole entry): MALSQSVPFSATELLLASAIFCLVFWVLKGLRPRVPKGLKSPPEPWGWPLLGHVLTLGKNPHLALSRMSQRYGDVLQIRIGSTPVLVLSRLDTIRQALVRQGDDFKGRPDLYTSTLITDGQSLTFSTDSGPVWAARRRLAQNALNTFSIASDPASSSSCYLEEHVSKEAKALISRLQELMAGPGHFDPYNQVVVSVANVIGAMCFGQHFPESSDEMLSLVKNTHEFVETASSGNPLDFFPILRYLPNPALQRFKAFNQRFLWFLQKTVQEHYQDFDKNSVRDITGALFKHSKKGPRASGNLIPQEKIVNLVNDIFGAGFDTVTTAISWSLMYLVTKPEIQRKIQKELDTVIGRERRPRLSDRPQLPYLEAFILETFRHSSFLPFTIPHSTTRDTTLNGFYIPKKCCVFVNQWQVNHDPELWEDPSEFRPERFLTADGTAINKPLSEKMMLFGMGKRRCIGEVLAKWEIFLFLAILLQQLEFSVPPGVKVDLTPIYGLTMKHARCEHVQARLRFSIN
REPORTED_PROPERTY: AC50

query: GET /values?readout=AC50&item= COc1ccc2c(c1)c(CC(=O)N1CCOCC1)c(C)n2C(=O)c1ccc(Cl)cc1 [INDOMETHACIN MORPHOLINYLAMIDE]
result: 25.1 µM (inconclusive)

query: Entry "COc1ccc(OCC(=O)Nc2ccc(Cl)cc2C(=O)c2ccccc2)cc1" has what AC50?
result: 3.55 µM (inconclusive)

query: Give the measured AC50 of "O=S(=O)(O)c1cc(/N=N\c2cccc3ccccc23)c(O)c2ncccc12" .
result: 0.631 µM (inconclusive)

query: Would you mind telling me what AC50 value was observed for "CCSc1nc2nc(C)cc(C)n2n1" ?
result: 12.6 µM (inconclusive)

query: # query: AC50 of entry "Cc1ccc(-c2ccc(/C=N/NC(=S)Nc3ccccc3)o2)cc1[N+](=O)[O-]"
result: 3.55 µM (inconclusive)

query: Can you share its AC50? I mean this compound: CN(C)CCCN1c2ccccc2C(C)(C)c2ccccc21 [DIMETACRINE]
result: 5.01 µM (inconclusive)

query: Reported AC50 for "Cc1ccc(NN=C2C(=O)NC(=O)NC2=O)c([N+](=O)[O-])c1" : what is it?
result: 17.8 µM (inconclusive)

query: AC50 for "O=c1c(-c2ccc(F)cc2)nc2cnc(Nc3ccccc3)nc2n1C[C@H]1CCCO1" ?
result: 2 µM (inconclusive)

query: Sample "O=C(c1ccncc1)N1CCC2(CCCN(c3cccc(-c4ccccc4)c3)C2)CC1" — what was its AC50?
result: 12.6 µM (inconclusive)

query: What does the record list as AC50 for "COc1ccc(-n2c(=O)c(-c3cccs3)nc3cnc(N4CCN(C)CC4)nc32)cc1" ?
result: 2.51 µM (inconclusive)

###

Molecular target: Cytochrome P450 3A4 (Homo sapiens, UniProt P08684);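 also: confirmatory qHTS run detecting inhibitors and substrates of CYP3A4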
Sequence (P08684 whole entry): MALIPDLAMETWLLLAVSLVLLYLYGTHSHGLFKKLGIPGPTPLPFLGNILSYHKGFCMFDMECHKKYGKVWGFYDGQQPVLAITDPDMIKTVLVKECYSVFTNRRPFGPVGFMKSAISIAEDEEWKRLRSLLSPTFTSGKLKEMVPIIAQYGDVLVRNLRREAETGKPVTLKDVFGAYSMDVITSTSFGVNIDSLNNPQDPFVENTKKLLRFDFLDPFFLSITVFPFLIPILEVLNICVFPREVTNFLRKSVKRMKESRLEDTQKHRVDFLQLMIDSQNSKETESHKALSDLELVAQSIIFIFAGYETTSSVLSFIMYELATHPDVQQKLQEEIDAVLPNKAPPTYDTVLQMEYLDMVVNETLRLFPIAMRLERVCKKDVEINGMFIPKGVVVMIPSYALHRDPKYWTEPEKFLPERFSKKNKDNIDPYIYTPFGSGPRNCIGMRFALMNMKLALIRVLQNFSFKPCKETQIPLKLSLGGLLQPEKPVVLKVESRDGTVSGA
Details: Potency
REPORTED_PROPERTY: AC50

query: Data request, read-out AC50, for CNC(=O)C1(C)C=CC2(CCCCC2)N1C(C)=O (stereo not given)
result: 15.8 µM (inconclusive)

query: Quick one: AC50 for COc1ccc(-c2cc(=O)c3c(O)c(OC)c(OC)c(OC)c3o2)cc1OC [5-DEMETHYLNOBILETIN] ?
result: 10 µM (inconclusive)

query: Requested field: AC50. Item: "COc1cc2cc[n+]3cc4c(OC)c(OC)ccc4cc3c2cc1OC"
result: 20 µM (inconclusive)

query: # AC50 lookup, item COC1=CC(=O)OC(CCc2ccccc2)C1 (stereo not given)
result: 12.6 µM (inconclusive)

query: Value lookup for AC50; key = CC1=C(C(=O)OCc2ccccc2)C(c2ccc(C(F)(F)F)cc2)NC(=O)N1CCCCCC(=O)O (stereo not given)
result: 15.8 µM (inconclusive)

###

For each of the compounds below, state its EC50.
Biological target: UniProt:P08659
Sequence (P08659 whole entry): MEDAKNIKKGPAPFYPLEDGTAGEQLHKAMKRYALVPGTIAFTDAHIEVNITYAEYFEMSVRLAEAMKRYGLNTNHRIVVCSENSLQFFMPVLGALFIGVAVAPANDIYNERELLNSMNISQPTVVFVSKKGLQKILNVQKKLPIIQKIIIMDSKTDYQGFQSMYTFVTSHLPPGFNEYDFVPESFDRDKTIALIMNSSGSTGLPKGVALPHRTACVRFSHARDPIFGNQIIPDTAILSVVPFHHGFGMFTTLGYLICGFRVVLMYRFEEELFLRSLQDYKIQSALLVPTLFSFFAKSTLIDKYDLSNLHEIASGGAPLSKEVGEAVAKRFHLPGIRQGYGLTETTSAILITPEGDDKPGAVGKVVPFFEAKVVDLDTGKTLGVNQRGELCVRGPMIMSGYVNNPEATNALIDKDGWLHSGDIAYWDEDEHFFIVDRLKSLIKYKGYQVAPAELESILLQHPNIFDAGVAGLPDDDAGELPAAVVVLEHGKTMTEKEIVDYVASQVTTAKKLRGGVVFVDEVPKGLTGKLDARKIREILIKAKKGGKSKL
Experiment: firefly luciferase enzyme inhibitors, dose response, biochemical, luminescence (AID 1891)
Calls of active or inactive are those of the source.

query: Query (compound): OC(CNCc1cccc(Cl)c1)c1ccccc1 (stereo not drawn) ; field requested: EC50
result: > 112 µM (not active)

query: What measured EC50 goes with "CC1(C)CC(=O)C=C(Nc2ccc3c(c2)OCCO3)C1" ?
result: > 112 µM (not active)

query: Quick one: EC50 for "C(=C\c1ccco1)/c1ccc2ccccc2n1" ?
result: 4.25 µM (active)

query: Please give the measured EC50 for this compound: "CCN(CC)CC(=O)n1c2c(c3ccccc31)CCCC2"
result: > 112 µM (not active)

query: What value of EC50 has been reported for the following compound? "O=C(Nc1ccc(C(=O)N2CCN(c3ccc(Cl)cc3)CC2)cc1)C1=CSCCO1"
result: 31.2 µM (active)

query: Entry "COc1nc2ccccc2nc1OC" : reported EC50 = ?
result: > 112 µM (not active)

query: Could you tell me which EC50 is on file for "Nc1c(Cl)ncnc1N/N=C/c1cccc(O)c1" ?
result: 58.1 µM (active)

query: May I ask what EC50 has been recorded for "Cc1cc(NC(=O)/C=C/c2ccccc2Cl)n(-c2nc3ccccc3[nH]2)n1" ?
result: 3.94 µM (active)

query: Entry under review: "Cc1cc(C)n2nc(N)c(N=Nc3ccccc3)c2n1" . Reported EC50?
result: > 112 µM (not active)

query: Given the entry "O=S(=O)(Nc1ccc(-c2ccc(N3CCOCC3)nn2)cc1)c1ccc(Cl)c(Cl)c1" , report its measured EC50.
result: 35.3 µM (active)

query: Which value of EC50 has been reported for "O=C(c1ccccc1)c1ccc2cc(O)ccc2c1" in the records?
result: 0.752 µM (active)

query: Returns the measured EC50 for the input compound. Input: "Cc1ccc(S(=O)(=O)Cc2ccc(C(=O)N3CCN(c4cccc(C)c4C)CC3)o2)cc1"
result: 57.2 µM (active)

query: What measured EC50 goes with "Cc1ccc(-c2cc(C(=O)Nc3ccc4c(c3)OCCO4)c3ccccc3n2)cc1" ?
result: 1.06 µM (active)
